experiment: NCI Yeast Anticancer Drug Screen. Data for the rad14 strain (AID 159);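 further: 0% = growth of vehicle-treated control cultures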; conditions: S. cerevisiae rad14 strain growth inhibition; at 100.0 µM; hits give high values
The panel holds about 79,000 compounds, 15% with a hit somewhere; the sample as a whole holds those more often. Active and inactive are the calls of the source. No stated cut-off is given here; in the data, active means growth inhibition above about 70%; inactive means the rest.
ENDPOINT_NAME: growth inhibition

Some solved cases for reference:
MOLECULE | growth inhibition
COc1cc(C2C3=C(COC3=O)Oc3cc4c(cc32)OCO4)cc(OC)c1O (stereo not given) | 15% (inactive)
COC1/C=C\C=C(/C)C(=O)NC2=CC(=O)C(=O)C(=C2O)CC(C)CC(OC)C(O)C(C)/C=C(\C)C1OC(N)=O (stereo not given) | 95% (active)
CCOC(=O)CC1(C)/C(=N\Nc2ccc([N+](=O)[O-])cc2[N+](=O)[O-])CCC2C1CCC1(C)C(C(C)CCCC(C)C)CCC21 (stereo not given) | -3% (inactive)
O=C(NCCCCN(CCCNC(=O)C(F)(F)F)Cc1ccccc1)C(F)(F)F | -10% (inactive)
CN(CCOc1ccc(Cl)cc1)CCOc1ccc(Cl)cc1 | 99% (active)
CC1C(c2ccccc2)SC(=N)N1C (stereo not given) | 2% (inactive)

Would you mind listing growth inhibition for each of the following molecules?
1. CC1(C)CC(=O)C(/C=N/c2nc(-c3ccc(Br)cc3)cs2)=C(O)C1
2. CC(C)(CN1CCCCC1)C(=O)/C=C/c1c(Cl)cccc1Cl
3. COc1ccc2nc3cccc([N+](=O)[O-])c3c(NCCNCCN(C)C)c2c1
4. NC(=S)N1N=C2c3ccccc3CC[C@H]2[C@@H]1c1ccc(Cl)cc1

98% (active)
99% (active)
4% (inactive)
82% (active)

---

assay: NCI Yeast Anticancer Drug Screen. Data for the mgt1 strain (AID 153); conditions: S. cerevisiae mgt1 mutant growth inhibition; at 100.0 µM; hits give high values
About 79,000 compounds went through this panel and 15% of them were active in at least one assay; those are over-represented in the sample as a whole.
I'd appreciate it if you could supply growth inhibition values for the items below.
Answers are plain numbers, in %.

COMPOUND | ENDPOINT_NAME | RECORDED_VALUE
CC1=COC2=C(C)C(=O)C(=O)c3c(C)ccc1c32 | growth inhibition | 94
O=C(NNc1ccccc1)C(CCCCNS(=O)(=O)Cc1ccccc1)NS(=O)(=O)Cc1ccccc1 (centres undefined) | growth inhibition | 18
Clc1nc(Cl)nc(Nc2cccc3ccccc23)n1 | growth inhibition | 98

Dear colleague, I am looking for the recorded growth inhibition of the following compound: COC1=CCC23C(=O)C=CC(=O)C2(C1)C(=O)c1ccccc1C3=O (centres undefined)
93

---

assay: NCI Yeast Anticancer Drug Screen. Data for the rad18 strain (AID 177); conditions: S. cerevisiae rad18 mutant growth inhibition; at 1.2 µM
The panel holds about 79,000 compounds, 15% with a hit somewhere; the sample as a whole holds those more often. Active and inactive are the calls of the source. Cut-off read from the data, not from the text of the source: active = growth inhibition above about 70%; inactive = the rest.
Could you please pick one outcome from this set? active, inactive

Example entries and their recorded answers appear below.
COMPOUND | CAT
CN(N=O)C(=O)Nc1ccc(C(=O)O)cc1 | inactive
CNCC(C)CNC | inactive
COc1ccc(C(=O)/C=C\c2ccc(Cl)c(Cl)c2)cc1 | inactive

We now examine a further compound.
State the result this test recorded for COc1cc2c(cc1O)[C@H](C)C(c1ccccc1OC)O2 (stereo partly drawn) .
inactive

---

assay: NCI Yeast Anticancer Drug Screen. Data for the rad14 strain (AID 159);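 further: 0% = growth of vehicle-treated control cultures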; details: S. cerevisiae rad14 strain growth inhibition; at 1.2 µM; hits give high values
This is part of a sample that, as a whole, favours compounds with a hit. Of some 79,000 tested, about 15% had one in any assay.
ENDPOINT_NAME: growth inhibition (%)
Answers are plain numbers, in %.

# annotated cases, reported growth inhibition shown
COMPOUND | ENDPOINT_NAME | UNIT_ABBREV | RECORDED_VALUE
O=c1c2ccccc2nc(-c2cccc([N+](=O)[O-])c2)n1O | growth inhibition | % | 36
CC1CCC(C2=CSC3CCCCC3N2)CC1 (centres undefined) | growth inhibition | % | -20
CCCCCCCCCCCCCCN | growth inhibition | % | 20
O=C(Oc1ccc([N+](=O)[O-])cc1)c1ccc([N+](=O)[O-])cc1 | growth inhibition | % | 7
CC(=O)/C=C/c1cccc([N+](=O)[O-])c1 | growth inhibition | % | -2

Kindly give each listed record's growth inhibition.
1. Cc1cccc(C)c1NC(=O)C(C#N)C1=C(Cl)C(=O)c2ccccc2C1=O (centres undefined)
2. COc1ccccc1/C=C\C(=O)C1COCN1 (centres undefined)
3. O=C(Nn1c(-c2ccccc2)nc2ccccc2c1=O)c1ccc(CS)cc1
4. CC(C)S(=O)(=O)/C=C\S(=O)(=O)C(C)C

1. -2
2. 0
3. -16
4. -3

The following compounds each have a reported value; give each one's growth inhibition.
1. O=C(Cc1ccccc1)NNc1nc(NNC(=O)c2ccncc2)nc(Nc2ccc([N+](=O)[O-])cc2)n1
2. O=C(O)c1c2ccc(Cl)cc2nc2[nH]c(=O)[nH]c(=O)c12
3. O=[N+]([O-])c1cn[n+]([O-])c2ccccc12
4. O=C(O)C1CCCCC1c1c2ccc(=O)cc-2oc2cc(O)ccc12 (centres undefined)
5. O=C(O)c1ccc2cc(Cl)c3ccccc3c2c1

[-3, -14, 21, -21, 0]

Hello, I would appreciate it if you could give growth inhibition for each entry below.
1. CCN(CC)CCCNc1ccc([N+](=O)[O-])c2nc3ccc(OC)cc3c(NCCCN(CC)CC)c12
2. COc1ccccc1NC(=O)c1ccc(Cl)cc1
3. C=C(C(=O)OC)N1C(=O)CC(C)C1=O (centres undefined)
4. N#CCCC1C(C#N)C2(Cl)CC1(Cl)C(Cl)=C2Cl (centres undefined)
5. O=C1C(=O)c2cccc([N+](=O)[O-])c2-c2ccccc21
6. Nc1cccc(-c2cc[cH-]c2)c1.[Fe+2].c1cc[cH-]c1
7. CN(N=O)C(=O)Nc1ccc(C(=O)O)cc1
8. O=[N+]([O-])c1ccc(C(c2c[nH]c3ccccc23)c2c[nH]c3ccccc23)cc1

1: -1; 2: 0; 3: -11; 4: -44; 5: 11; 6: 0; 7: -4; 8: 25

Hey, quick one: what's growth inhibition for each of these?
1. COc1ccc(-c2cc(-c3cc(C)cc(Cl)c3O)nc3[nH]c(=S)[nH]c(=S)c23)cc1
2. O=C(/C(=C/c1ccc(O)cc1)c1ccccc1)c1ccccc1

1
-2

---

I'd appreciate it if you could supply growth inhibition values for the items below.
assay: NCI Yeast Anticancer Drug Screen. Data for the bub3 strain (AID 167); details: S. cerevisiae bub3 mutant strain, at 1.2 µM, hits give high values
Compounds without any hit were thinned out: in the full panel of roughly 79,000, 15% have a hit. Active and inactive are the calls of the source. No stated cut-off is given here; in the data, active means growth inhibition above about 70%; inactive means the rest.

In the examples that follow, each entry is paired with its recorded growth inhibition.
COMPOUND | growth inhibition
CCCCCCCCCC(=O)N(CCC)CCC | -29% (inactive)
CC(CN(C)C)C(=O)/C=C/c1ccc(Cl)c(Cl)c1 (configuration not stated) | 3% (inactive)
O=C1Nc2ccc(Br)cc2C1=Nc1cccnc1 | -53% (inactive)
CSC(=S)N/N=C/c1ccccc1 | 32% (inactive)
O=c1cccccc1[O-].O=c1cccccc1[O-].O=c1cccccc1[O-].[Eu+3] | 1% (inactive)
O=C1NC(c2cccc(OCc3ccccc3)c2)Nc2ccccc21 (configuration not stated) | 6% (inactive)
O=[N+]([O-])c1ccc(C(c2c[nH]c3ccccc23)c2c[nH]c3ccccc23)cc1 | 24% (inactive)
c1ccc2c(c1)ccn2CCc1c[nH]c2ccccc12 | 15% (inactive)

Look at each compound and report its growth inhibition.
1. CCCCN(CCCC)c1ccc(N=Nc2ccc(S(=O)(=O)O)cc2)cc1
2. COc1ccc2nc3cccc([N+](=O)[O-])c3c(NCCNCCN(C)C)c2c1

1: 34% (inactive); 2: -5% (inactive)

---

For each record, write down the corresponding growth inhibition.
Test: NCI Yeast Anticancer Drug Screen. Data for the mlh1 strain (AID 171);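 further: 0% = growth of vehicle-treated control cultures of the same strain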
Conditions: S. cerevisiae mlh1 strain growth inhibition; at 11.0 µM; hits give high values
Description: Growth inhibition of yeast strains with defined genetic alterations is measured as a screen for potential anti-cancer activity. Selected strains with alterations in DNA damage repair or cell cycle control were exposed to compounds and growth inhibition was measured relative to vehicle treated controls. The strain used in this assay is mlh1
This is part of a sample that, as a whole, favours compounds with a hit. Of some 79,000 tested, about 15% had one in any assay. Activity calls are given as the source filed them. Rule as the data show it: active = growth inhibition above about 70%; inactive = the rest.

Example entries begin here.
COMPOUND_STRING | growth inhibition
CC1(C)CC(=O)C(C=NC(=S)C(N)=S)=C(O)C1 | -9% (inactive)
CCOC(=O)/C(=C\c1cccc(C)c1)C(C)=O | 80% (active)
O=C1c2cccc3cccc(c23)C(=O)N1O | 0% (inactive)
Cc1ccc(C)c(C(=N)c2ccccc2Cc2ccccc2)c1 | 80% (active)
Cc1cc(C)c(S(=O)(=O)c2ccc(Cl)cc2)c(C)c1 | -6% (inactive)

Provide each entry's growth inhibition from the list below.
1. COC(=O)C1=C(C(=O)OC)CC(n2nnc(C(=O)OC)c2C(=O)OC)=CC1
2. C[n+]1c(-c2ccc(/C=N/NC(=O)c3ccc(C(=O)N/N=C/c4ccc(-c5cn6ccccc6[n+]5C)cc4)cc3)cc2)cn2ccccc21
3. O=C(Cc1ccccc1)NNc1nc(NNC(=O)c2ccncc2)nc(Nc2ccc(Cl)cc2)n1
4. O=C1C(=O)N(c2ccccc2)[C@@]2(c3ccccc3)C(=Nc3ccccc3)OC(c3ccccc3)=C12

1: -2% (inactive); 2: 37% (inactive); 3: 0% (inactive); 4: 62% (inactive)

Would you mind telling me what growth inhibition value was observed for "Cc1cccc2c(NCCCN(C)C)c3c([N+](=O)[O-])ccc(C)c3nc12" ?
63% (inactive)
